Assay target: T1, ferroportin tagged at the C-terminus with green fluorescent protein (ECR293/Fpn-GFP cells)
T1 sequence (Q9NP59 whole entry, species assumed, looked up): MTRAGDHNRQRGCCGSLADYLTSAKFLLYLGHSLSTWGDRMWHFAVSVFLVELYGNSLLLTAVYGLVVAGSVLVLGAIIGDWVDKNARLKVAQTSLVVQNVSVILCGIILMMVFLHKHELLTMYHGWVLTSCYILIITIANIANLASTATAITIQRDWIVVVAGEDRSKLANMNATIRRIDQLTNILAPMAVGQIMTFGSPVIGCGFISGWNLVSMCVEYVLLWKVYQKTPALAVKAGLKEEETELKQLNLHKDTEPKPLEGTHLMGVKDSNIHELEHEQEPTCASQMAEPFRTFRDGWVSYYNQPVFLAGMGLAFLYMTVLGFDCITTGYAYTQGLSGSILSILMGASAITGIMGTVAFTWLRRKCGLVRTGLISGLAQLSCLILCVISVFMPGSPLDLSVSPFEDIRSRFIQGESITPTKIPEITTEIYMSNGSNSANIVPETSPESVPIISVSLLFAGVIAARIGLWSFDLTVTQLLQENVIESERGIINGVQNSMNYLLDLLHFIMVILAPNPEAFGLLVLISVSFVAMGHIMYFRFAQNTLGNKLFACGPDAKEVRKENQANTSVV
Test protocol: cell-based or functional assay
Square brackets hold non-standard residues; d marks the D form. Ends that are not written are not given here.
Please use MET for EC50 (nM); loss of fluorescence of Fpn-GFP cells, flow cytometry under 1000 nM and NOT MET for everything else, ties included.

Binder	Class label
FICIPFHTD (not fully specified; N-terminal R5 = 2(Palmitoyl)-Dap(PEG11)-, Dap = diaminopropionic acid; retroinverted (D-amino acids); C-terminal amide) [Pr28]	NOT MET
HFPICIF (not fully specified; C-terminal F carries R1 = -CONH2-CH2-CH2-S; disulfide cyclized (double underlining lost)) [Cyc-3]	NOT MET
HFPIC-NH2 [Hep5 (Hep3-7)]	NOT MET
DTHFPIC-NH2 [Hep7 (Hep1-7)]	NOT MET
DTHFPIAIF-NH2 [Hep9-C7A]	NOT MET

Strictly below 1000 nM: is that where EC50 (nM); loss of fluorescence of Fpn-GFP cells, flow cytometry of DTHFPICI-NH2 [Hep8 (Hep1-8)] sits?
NOT MET

Please check: EC50 (nM); loss of fluorescence of Fpn-GFP cells, flow cytometry for FPIC-NH2 [Hep4 (Hep4-7)] , strictly under 1000 nM or not?
NOT MET

Confirm or reject: EC50 (nM); loss of fluorescence of Fpn-GFP cells, flow cytometry of DTHFPISIF-NH2 [Hep9-C7S] lies strictly below 1000 nM
NOT MET

Hi there! Is EC50 (nM); loss of fluorescence of Fpn-GFP cells, flow cytometry for HFPICIF-NH2 [Hep7ΔDT (Hep3-9)] below 1000 nM, do you know?
MET

Lab note: confirm whether the reported EC50 (nM); loss of fluorescence of Fpn-GFP cells, flow cytometry for this binder is below 1000 nM, equality not counting. binder: [dF][dI][dC][dI][dP][dF][dH]-NH2 (N-terminus assumed; SMILES CC[C@@H](C)[C@@H](NC(=O)[C@H](N)Cc1ccccc1)C(=O)N[C@H](CS)C(=O)N[C@@H](C(=O)N1CCC[C@@H]1C(=O)N[C@H](Cc1ccccc1)C(=O)N[C@H](Cc1c[nH]cn1)C(N)=O)[C@H](C)CC) [riHep7ΔDT]
MET

Regarding DTHFPICIFCCGCCHRSKCGMCCKT (disulfide (positions not given here); also: 4 disulfide bonds, pairing not given here) [Hep25] , kindly confirm whether its EC50 (nM); loss of fluorescence of Fpn-GFP cells, flow cytometry is beneath 1000 nM.
MET
